Taken from patent US8871760B2.

The reader will find reported pIC50 values listed item by item below.
target: human P2X7 (UniProt Q99572); experiment: Intracellular Calcium Flux (FLIPR) Assay; assay type: cell-based
Property label: pIC50

>>> df
                                    compound  recorded_result
 0  Cc1ccc(-c2ccn[nH]c2=O)cc1Nc1nnc2n1[C@H](c1ccc(F)cc1)COC2 [Compound 43]             8.28
 1  COc1cc(C)c(Nc2nnc3n2[C@H](c2ccc(F)cc2)CCC3)cc1OC [Compound 4]             7.98
 2  O=C1NCCCN1c1ccc(Br)c(Nc2nnc3n2[C@H](c2ccc(F)cc2)COC3)c1 [Compound 54]            7.325
 3  Cc1ccc(-c2cc(C)n(C[C@@H](O)CO)n2)cc1Nc1nnc2n1[C@H](c1ccc(F)cc1)COC2 [Compound 32]           7.5475
 4  COc1cc(Br)c(Nc2nnc3n2[C@H](c2ccc(F)cc2)COC3)cc1OC [Compound 13]             7.75
 5  COc1cc(Br)c(Nc2nnc3n2C(c2ccc(F)cc2)COC3)cc1OC (centres unmarked) [Compound 5]            7.775
 6  Cc1ccc(-c2ccc(=O)[nH]n2)cc1Nc1nnc2n1[C@H](c1ccc(F)cc1)COC2 [Compound 41]            7.665
 7  CCc1c(Nc2nnc3n2C(c2ccc(F)cc2)CCC3)ccc2ncccc12 (centres unmarked) [Compound 2]             7.52
 8  O=c1[nH]ncc2c(Nc3nnc4n3[C@H](c3ccc(F)cc3)COC4)c(Br)ccc12 [Compound 48]             7.57
 9  Cc1cc2cnn(CCO)c2cc1Nc1nnc2n1[C@H](c1ccc(F)cc1)COC2 [Compound 39]            7.605
10  Cc1ccc2ncccc2c1Nc1nnc2n1[C@H](c1ccccc1)COC2 [Compound 11]            7.442
11  COc1cc(Br)c(Nc2nnc3n2[C@@H](c2ccc(F)cc2)COC3)cc1OC [Compound 12]           5.1167
12  Cc1ccc(-c2ccnn(C)c2=O)cc1Nc1nnc2n1[C@H](c1ccc(F)cc1)CSC2 [Compound 51]             8.16
13  COc1cc(Br)c(Nc2nnc3n2C(c2ccc(F)cc2)CN(C(C)=O)C3)cc1OC (centres unmarked) [Compound 24]            6.945
14  Fc1cccc(C2COCc3nnc(Nc4cccc5ncccc45)n32)c1 (centres unmarked) [Compound 20]            6.987
15  COc1cc(C)c(Nc2nnc3n2C(c2ccc(F)cc2)CSC3)cc1OC (centres unmarked) [Compound 18]             7.58
16  COc1cc(C)c(Nc2nnc3n2C(C)(c2ccc(F)cc2)COC3)cc1OC (centres unmarked) [Compound 23]              6.9
17  Cc1ccc(-c2cc(C)n(C[C@H](C)O)n2)cc1Nc1nnc2n1[C@H](c1ccc(F)cc1)COC2 [Compound 34]              7.4
18  Cc1cc(-c2ccc(Cl)c(Nc3nnc4n3[C@H](c3ccc(F)cc3)COC4)c2)nn1CCO [Compound 40]             7.54
19  COc1cc(Br)c(Nc2nnc3n2C(c2ccc(F)cc2)CNC3)cc1OC (centres unmarked) [Compound 17]           7.3267
